experiment: Potency code of Table 2 (assay not stated)
measured-metric: Potency code

Recorded Potency code for COc1cccc(-c2c(-c3ccc(OCc4ccc(Cl)cc4)cc3O)n[nH]c2C(F)(F)F)c1 , please?
++++ (<10 ++++)

Queued: CCCCOc1ccc(-c2cc(C(F)(F)F)n[nH]2)c(O)c1-c1cc(C(F)(F)F)cc(C(F)(F)F)c1
+ (>40 +)

Same again, this time with Cc1c(-c2ccccc2)c(-c2ccc(OCc3ccc(Cl)cc3)cc2O)nn1C
+ (>40 +)

How about Oc1c(-c2cc(C(F)(F)F)[nH]n2)ccc(Oc2ccc(Cl)cc2)c1-c1cc(C(F)(F)F)cc(C(F)(F)F)c1 ?
++++ (<10 ++++)

====

assay: Potency code of Table 2 (assay not stated)
measured-metric: Potency code

Illustrative cases are given below, each with its answer.
Would you kindly share the measured Potency code for Oc1ccccc1-c1cc(C(F)(F)F)n[nH]1 [NUCC-0200574] ?
+ (>40 +)

Query CC(C)COc1ccc(-c2cc(C(F)(F)F)n[nH]2)c(O)c1-c1cc(C(C)(F)F)cc(C(F)(F)F)c1 [NUCC-0201030] next
+ (>40 +)

Check CCc1ccc(Oc2c(-c3ccc(OCc4cccc(OC)c4)cc3O)n[nH]c2C(F)(F)F)cc1 [NUCC-0196297] too.
+ (>40 +)

Would you kindly repeat that for Oc1c(-c2cc(C(F)(F)F)[nH]n2)ccc(OCc2ccc(Cl)cc2)c1Cc1ccccc1Cl [NUCC-0200490] ?
+ (>40 +)

Others:
Quick one: Potency code of Nc1ccc(COc2ccc(-c3cc(C(F)(F)F)n[nH]3)c(O)c2-c2cc(C(F)(F)F)cc(C(F)(F)F)c2)cc1 [NUCC-0201201] ?
++++ (<10 ++++)

====

test: Potency code of Table 2 (assay not stated)
measured-metric: Potency code

Using the record for Cc1[nH]nc(-c2ccc(OCc3ccc(Cl)cc3)cc2O)c1Oc1ccccc1 , report its Potency code.
+ (>40 +)

Queued: Cn1nc(-c2ccc(OCc3ccc(Cl)cc3)c(-c3ccc(F)cc3)c2O)cc1C(F)(F)F
+++ (10-30 +++)

Let us now turn to Cn1cc(-c2ccc(OCc3ccc(Cl)cc3)cc2N)c(C(F)(F)F)n1
+ (>40 +)

Item: Oc1c(-c2cc(C(F)(F)F)[nH]n2)ccc(OCc2ccc(Cl)cc2)c1-c1ccoc1
+ (>40 +)

More entries:
Dear colleague, I am looking for the recorded Potency code of the following molecule: O=C1CCC(N2C(=O)c3cccc(OCc4cn(CCOCCOCCOCC(=O)Nc5ccc(COc6ccc(-c7cc(C(F)(F)F)n[nH]7)c(O)c6-c6cc(C(F)(F)F)cc(C(F)(F)F)c6)cc5)nn4)c3C2=O)C(=O)N1 (centres unmarked)
+++ (10-30 +++)

Then what about the molecule Oc1ccccc1C1=NNC(c2ccccc2)C1 (centres unmarked) ?
+ (>40 +)

Same lookup for Cc1[nH]nc(-c2ccc(OCc3ccc(F)cc3)cc2O)c1Oc1ccccc1 , please.
+ (>40 +)

====

test: Potency code of Table 2 (assay not stated)
measured-metric: Potency code

Name the reported Potency code value associated with the compound Oc1cc(OCc2ccc(Cl)cc2)ccc1-c1n[nH]c(C(F)(F)F)c1Oc1cccc(F)c1
+ (>40 +)

Here is the next compound: Cn1nc(-c2ccc(OCc3ccc(Cl)cc3)c(-c3cccc(C#N)c3)c2O)cc1C(N)=O
++++ (<10 ++++)

What do you have for Cn1nc(-c2ccc(OCc3ccc(Cl)cc3)cc2O)c(Oc2cccc(F)c2)c1C(F)(F)F ?
+ (>40 +)

Entry COc1ccc(COc2ccc(-c3cc(C(F)(F)F)nn3C)c(O)c2-c2cc(C(F)(F)F)cc(C(F)(F)F)c2)cc1 please
+ (>40 +)

Try this compound too: Cc1ccc(C)c(Oc2cn(C)nc2-c2ccc(OCc3ccc(Cl)cc3)cc2O)c1
+ (>40 +)

Let us now turn to CC(C)CCOc1ccc(-c2cc(C(F)(F)F)n[nH]2)c(O)c1-c1cncc(C#N)c1
++++ (<10 ++++)

Let's switch to this compound now.
Form field: reported Potency code of Cn1nc(-c2ccc(OCc3ccc(Cl)cc3)c(-c3cccc(C#N)c3)c2O)cc1C(F)(F)F
+ (>40 +)

====

experiment: Potency code of Table 2 (assay not stated)
measured-metric: Potency code

Example compounds with recorded Potency code:
Could you share which Potency code value was measured for N#Cc1cccc(-c2c(OCc3ccc(Cl)cc3)ccc(-c3cc(C(N)=O)[nH]n3)c2O)c1 ?
+ (>40 +)

Please give the result for Cn1nc(-c2ccc(OCCc3ccc(Cl)cc3)c(-c3cc(C(F)(F)F)cc(C(F)(F)F)c3)c2O)cc1C(F)(F)F too.
+ (>40 +)

Also O=CNc1ccc(Nc2ccc(-c3cc(C(F)(F)F)[nH]n3)c(O)c2)cc1 , if possible.
+ (>40 +)

Subsequent entry: Cc1cc(C)c(-c2c[nH]nc2-c2ccc(OCc3ccc(Cl)cc3)cc2O)c(C)c1
++ (30-40 ++)

What would you report for N#Cc1ccc(-c2c(OCc3ccc(Cl)cc3)ccc(-c3cc(C(F)(F)F)[nH]n3)c2O)cc1 ?
++++ (<10 ++++)

// repeat for CCc1ccc(Oc2c(-c3ccc(OCc4ccc(Cl)cc4)cc3)nn(C)c2C(F)(F)F)cc1 and report
+ (>40 +)

What about Cn1cc(-c2ccc(OCc3ccc(Cl)cc3)cc2Cl)c(C(F)(F)F)n1 ?
+ (>40 +)

What about this compound? N#Cc1cncc(-c2c(OCc3ccc(Cl)cc3)ccc(-c3cc(C(F)(F)F)n[nH]3)c2O)c1
++++ (<10 ++++)

***
Which Potency code value is on record for CCc1ccc(Oc2c(-c3ccc(Oc4ccc(Cl)cc4)cc3O)n[nH]c2C(F)(F)F)cc1 ?
++++ (<10 ++++)

Likewise for COc1ccc(-c2c(-c3ccc(OCc4ccc(Cl)cc4)cc3O)nn(C)c2C(F)(F)F)cc1 ?
++ (30-40 ++)

# iterate: CCc1ccc(Oc2c(-c3ccccc3O)nn(C)c2C(F)(F)F)cc1
+ (>40 +)

Would you kindly repeat that for Cn1nc(C(F)(F)F)cc1-c1ccc(OCc2ccc(Cl)cc2)cc1O ?
+ (>40 +)

Now the compound Cn1nc(C(F)(F)F)cc1-c1ccc(OCc2ccc(Cl)cc2)cc1C(N)=O
+ (>40 +)

Moving on to CC(C)CCOc1ccc(-c2cc(C(F)(F)F)nn2C)c(O)c1-c1cncc(C#N)c1
++++ (<10 ++++)

Same thing, different compound: Cn1cc(-c2cccc(Cl)c2)c(-c2ccc(OCc3ccc(Cl)cc3)cc2O)n1
+ (>40 +)

====

test: Potency code of Table 2 (assay not stated)
measured-metric: Potency code

// query Potency code value for entry Nc1nc(-c2ccc(OCc3ccc(Cl)cc3)cc2O)cc(C(F)(F)F)n1 [NUCC-0200502]
+ (>40 +)

Also need Oc1cc(NCc2ccc(Cl)cc2)ccc1-c1cc(C(F)(F)F)[nH]n1 [NUCC-0200493] , thanks.
+ (>40 +)

Do the same for NCCOc1ccc(-c2cc(C(F)(F)F)n[nH]2)c(O)c1-c1ccc(Cl)c(C(F)(F)F)c1 [NUCC-0201640] please
+ (>40 +)

What do we get for Cc1ccccc1-c1cn(C)nc1-c1ccc(OCc2ccc(Cl)cc2)cc1O [NUCC-0198356] ?
+ (>40 +)

Cn1cc(-c2cccnc2)c(-c2ccc(OCc3ccc(Cl)cc3)cc2O)n1 [NUCC-0198321] , same question.
+ (>40 +)

Try this compound next: Cn1cc(-c2ccoc2)c(-c2ccc(OCc3ccc(Cl)cc3)cc2O)n1 [NUCC-0198324]
+ (>40 +)

Next entry: Oc1c(-c2cc(C(F)(F)F)[nH]n2)ccc(OCc2ccc(Cl)cc2)c1-c1ccc(C(F)(F)F)cc1Cl [NUCC-0200737]
+ (>40 +)

Repeat with COc1cccc(COc2ccc(-c3nn(C)cc3Oc3cc(C)ccc3C)c(O)c2)c1 [NUCC-0196289]
+ (>40 +)

Further cases:
What value of Potency code has been reported for the following compound? Cn1nc(-c2ccc(OCCCNC(=O)OC(C)(C)C)c(-c3cncc(C(F)(F)F)c3)c2O)cc1C(F)(F)F [NUCC-0201656]
+ (>40 +)

Also check Cn1nc(-c2ccc(OCc3ccc([N+](=O)[O-])cc3)c(-c3cc(C(F)(F)F)cc(C(F)(F)F)c3)c2O)cc1C(F)(F)F [NUCC-0201649]
+ (>40 +)

Another compound to look at: Cn1nc(-c2ccc(OCc3ccc(C#N)cc3)c(-c3ccc(Cl)c(C(F)(F)F)c3)c2O)cc1C(F)(F)F [NUCC-0201912]
+ (>40 +)

====

experiment: Potency code of Table 2 (assay not stated)
measured-metric: Potency code

Check out these entries, answers already filled in.
// lookup Potency code for Oc1cc(Nc2ccc(Cl)c(Cl)c2)ccc1-c1cc(C(F)(F)F)[nH]n1 [NUCC-0200721]
++++ (<10 ++++)

How about Oc1cc(OCc2ccc(Cl)cc2)ccc1-c1n[nH]c(C(F)(F)F)c1Oc1ccccc1Cl [NUCC-0196342] ?
++++ (<10 ++++)

Okay, and COc1cccc(-c2c(-c3ccc(OCc4ccc(Cl)cc4)cc3O)nn(C)c2C(F)(F)F)c1 [NUCC-0198311] ?
+ (>40 +)

Would you kindly repeat that for N#Cc1cc(-c2ccc(Nc3ccc(Cl)cc3)cc2O)n[nH]1 [NUCC-0200678] ?
+ (>40 +)

Cn1cc(-c2ccccc2)c(-c2ccc(OCc3ccc(Cl)cc3)cc2O)n1 [NUCC-0198294] ?
+ (>40 +)

---
Consider the molecule N#Cc1ccc(COc2ccc(-c3cc(C(F)(F)F)[nH]n3)c(O)c2-c2ccc(Cl)c(C(F)(F)F)c2)cc1 [NUCC-0201911] and give its measured Potency code.
+ (>40 +)

Entry COc1cccc(-c2cn(C)nc2-c2ccc(OCc3ccc(Cl)cc3)cc2O)c1 [NUCC-0198326] please
+ (>40 +)
